experiment: NOVARTIS: Inhibition Frequency Index (IFI) - the number of HTS assays where a compound showed > 50% inhibition/induction, expressed as a percentage of the number of assays in which the compound was tested.; format: functional
In all, about 5,400 compounds were measured (“IFI”: median about 2, highest 2% from about 22 on). This excerpt belongs to a sample that is enriched for the highest values.
IFI values for the molecules below.

[
  {
    "molecule": "COc1ccc(-c2cc(C3CCN(c4nc(N)c5cc(OC)c(OC)cc5n4)CC3)n[nH]2)cc1OC",
    "IFI, %": 7.41
  },
  {
    "molecule": "CC(C)(C)NC(=O)C(c1ccc(F)cc1)N(CCCN1CCOCC1)C(=O)c1ccc(-c2ccccc2)[nH]1 (stereo not drawn)",
    "IFI, %": 3.16
  },
  {
    "molecule": "Oc1ccccc1-c1nc2sc(-c3ccccc3O)nc2s1",
    "IFI, %": 11
  },
  {
    "molecule": "FC(F)(F)c1cccc(Nc2nc3nonc3nc2Nc2ccc(Cl)cc2)c1",
    "IFI, %": 22.7
  },
  {
    "molecule": "COc1ccc(Nc2nc(NN=Cc3cccc([N+](=O)[O-])c3OC)nc(Nc3ccc([N+](=O)[O-])cc3)n2)cc1",
    "IFI, %": 6.49
  },
  {
    "molecule": "CC1(C)C2CCC(C2)C1(C)NC(=S)NN=Cc1ccccn1 (stereo not drawn)",
    "IFI, %": 26
  },
  {
    "molecule": "O=S(=O)(Nc1cc(Sc2nc[nH]n2)c(O)c2ccccc12)c1ccc(F)cc1",
    "IFI, %": 23.1
  },
  {
    "molecule": "N#Cc1ccc(NC(=O)c2cc(Cl)ccc2O)cc1",
    "IFI, %": 24.7
  },
  {
    "molecule": "COc1ccc(-c2c[n+](CC(=O)c3ccc(Cl)cc3)c3n2CCC3)cc1",
    "IFI, %": 5
  },
  {
    "molecule": "O=C(CSc1oc(-c2ccc(Cl)cc2)nc1[P+](c1ccccc1)(c1ccccc1)c1ccccc1)c1ccccc1",
    "IFI, %": 21.4
  },
  {
    "molecule": "S=C(NN=Cc1ccccn1)NC1CC2C=CC1C2 (stereo not drawn)",
    "IFI, %": 19.7
  },
  {
    "molecule": "COc1cc2nc(Nc3ccc(F)cc3)nc(N)c2cc1OC",
    "IFI, %": 0
  },
  {
    "molecule": "O=C(Nc1ccc(NC(=O)c2ccco2)cc1Cl)c1ccccc1",
    "IFI, %": 0
  },
  {
    "molecule": "Cc1ccc(S(=O)(=O)c2c(COC(=O)c3cccc(C)c3)c(-c3ccccc3)nn2C)cc1",
    "IFI, %": 3.9
  },
  {
    "molecule": "O=C(Nc1c2ccccc2nc2ccccc12)c1cc(Cl)ccc1O",
    "IFI, %": 3.03
  },
  {
    "molecule": "FC(F)(F)c1cccc(Nc2nc3nonc3nc2Nc2ccc(Br)cc2)c1",
    "IFI, %": 22.2
  },
  {
    "molecule": "N#C/C(=C\\C=C\\c1ccc([N+](=O)[O-])o1)c1nc2ccccc2[nH]1",
    "IFI, %": 28.6
  },
  {
    "molecule": "O=C(Nc1ccc(C2=NCCN2)cc1)c1ccc(-c2ccc(C(=O)Nc3ccc(C4=NCCN4)cc3)cc2)cc1",
    "IFI, %": 4.4
  },
  {
    "molecule": "COc1cc(C2C(C(=O)OCC(C)C)=C(C)NC3=C2C(=O)CC(c2ccccc2)C3)cc(Br)c1O (stereo not drawn)",
    "IFI, %": 4.65
  },
  {
    "molecule": "CCCCN(C)Cc1cc(-c2cccc(OC)n2)ccc1O",
    "IFI, %": 3.42
  },
  {
    "molecule": "COC(=O)c1sc2nc(CN3CCC(C)CC3)ccc2c1NC(=O)c1ccc(C)s1",
    "IFI, %": 1.74
  },
  {
    "molecule": "Clc1ccc(Nc2nc3nonc3nc2Nc2ccc(Cl)c(Cl)c2)cc1Cl",
    "IFI, %": 7.14
  },
  {
    "molecule": "O=C(C[n+]1cc(-c2ccccc2)n2c1CCC2)c1ccc(C2CCCCC2)cc1",
    "IFI, %": 12.5
  },
  {
    "molecule": "Cc1onc(-c2ccccc2)c1C(=O)N1CCC(CNc2c(-c3ccc(F)cc3)nc3ccccn23)CC1",
    "IFI, %": 5.56
  },
  {
    "molecule": "C[n+]1c2ccccc2nc2ccc(NCCc3cnc[nH]3)cc21",
    "IFI, %": 15.4
  },
  {
    "molecule": "COc1ccc(/C=C/c2nc(=O)c3ccccc3o2)cc1",
    "IFI, %": 0
  },
  {
    "molecule": "CN1CCc2c(sc3nc(SCc4ccc(F)cc4)n(-c4ccccc4)c(=O)c23)C1",
    "IFI, %": 2.5
  },
  {
    "molecule": "O=C(NN=CC(Br)=Cc1ccccc1)c1ccc(F)cc1",
    "IFI, %": 0
  },
  {
    "molecule": "O=C1C(N2CCCCC2)=C(N2CCCCC2)C(=O)c2ccccc21",
    "IFI, %": 0
  },
  {
    "molecule": "CCOc1ccccc1-n1c(SCC(=O)c2ccc(Cl)cc2)nc2[nH]ncc2c1=O",
    "IFI, %": 1.16
  },
  {
    "molecule": "Clc1ccccc1Nc1nc2nonc2nc1Nc1cccc(Br)c1",
    "IFI, %": 15.4
  },
  {
    "molecule": "CCCN(CCC)[P+](CCC)(c1ccc([P+](CCC)(N(CCC)CCC)N(CCC)CCC)cc1)N(CCC)CCC",
    "IFI, %": 3.7
  },
  {
    "molecule": "Cc1ccc2nc(-c3ccc(O)cc3)oc2c1",
    "IFI, %": 7.14
  }
]
